Here the recorded MIC Bacillus subtilis (KCTC 3068) is given for each entry.
system: Bacillus subtilis (KCTC 3068); experiment: Antimicrobial activity, broth microdilution MIC; assay type: cell-based; conditions: 2 × 10^6 CFU/mL in 1% peptone, 37 °C, 18–22 h, 100% inhibition of growth, performed three times

# annotated cases, reported MIC Bacillus subtilis (KCTC 3068) shown
NCCCN(CCCN)c1nc(N)nc(NCCNc2nc(NCCNc3nc(Cl)nc(N(CCCN)CCCN)n3)nc(N(CCCN)CCCN)n2)n1 : 8 [10.1] μg/mL
NCCCN(CCCN)c1nc(Cl)nc(NCCNc2nc(NCCNc3nc(N)nc(NCCC(c4ccccc4)c4ccccc4)n3)nc(N(CCCN)CCCN)n2)n1 : 2 [1.5] μg/mL
NCCCN(CCCN)c1nc(N)nc(NCCNc2nc(Cl)nc(N(CCCN)CCCN)n2)n1 : 64 [121.7] μg/mL
N=C(N)NCCCN(CCCNC(=N)N)c1nc(Cl)nc(NCCNc2nc(NCCNc3nc(NCCNc4nc(N)nc(NCCC(c5ccccc5)c5ccccc5)n4)nc(N(CCCNC(=N)N)CCCNC(=N)N)n3)nc(NCCC(c3ccccc3)c3ccccc3)n2)n1 : 8 [9.2] μg/mL
NCCCN(CCCN)c1nc(NCCNc2nc(N)nc(N(Cc3ccccc3)Cc3ccccc3)n2)nc(NCCNc2nc(Cl)nc(N(Cc3ccccc3)Cc3ccccc3)n2)n1 : 8 [8.7] μg/mL
NCCCN(CCCN)c1nc(Cl)nc(NCCNc2nc(NCCNc3nc(NCCNc4nc(N)nc(NCCC(c5ccccc5)c5ccccc5)n4)nc(N(CCCN)CCCN)n3)nc(NCCC(c3ccccc3)c3ccccc3)n2)n1 : 8 [5.8] μg/mL

Reported MIC Bacillus subtilis (KCTC 3068) for N=C(N)NCCCN(CCCNC(=N)N)c1nc(Cl)nc(NCCNc2nc(NCCNc3nc(N)nc(N(CCCN)CCCN)n3)nc(N(Cc3ccccc3)Cc3ccccc3)n2)n1 was 2 [2.1] μg/mL

Values from paper PMC6805867
